This listing pairs compounds with measured inhibition at 100 µM.
# measured.on: pyk-2 protein kinase (Homo sapiens)
# Construct: made in house; host or cells: Schizosaccharomyces pombe strain SP200, pRSP expression plasmids
# Sequence (Q14289 whole entry): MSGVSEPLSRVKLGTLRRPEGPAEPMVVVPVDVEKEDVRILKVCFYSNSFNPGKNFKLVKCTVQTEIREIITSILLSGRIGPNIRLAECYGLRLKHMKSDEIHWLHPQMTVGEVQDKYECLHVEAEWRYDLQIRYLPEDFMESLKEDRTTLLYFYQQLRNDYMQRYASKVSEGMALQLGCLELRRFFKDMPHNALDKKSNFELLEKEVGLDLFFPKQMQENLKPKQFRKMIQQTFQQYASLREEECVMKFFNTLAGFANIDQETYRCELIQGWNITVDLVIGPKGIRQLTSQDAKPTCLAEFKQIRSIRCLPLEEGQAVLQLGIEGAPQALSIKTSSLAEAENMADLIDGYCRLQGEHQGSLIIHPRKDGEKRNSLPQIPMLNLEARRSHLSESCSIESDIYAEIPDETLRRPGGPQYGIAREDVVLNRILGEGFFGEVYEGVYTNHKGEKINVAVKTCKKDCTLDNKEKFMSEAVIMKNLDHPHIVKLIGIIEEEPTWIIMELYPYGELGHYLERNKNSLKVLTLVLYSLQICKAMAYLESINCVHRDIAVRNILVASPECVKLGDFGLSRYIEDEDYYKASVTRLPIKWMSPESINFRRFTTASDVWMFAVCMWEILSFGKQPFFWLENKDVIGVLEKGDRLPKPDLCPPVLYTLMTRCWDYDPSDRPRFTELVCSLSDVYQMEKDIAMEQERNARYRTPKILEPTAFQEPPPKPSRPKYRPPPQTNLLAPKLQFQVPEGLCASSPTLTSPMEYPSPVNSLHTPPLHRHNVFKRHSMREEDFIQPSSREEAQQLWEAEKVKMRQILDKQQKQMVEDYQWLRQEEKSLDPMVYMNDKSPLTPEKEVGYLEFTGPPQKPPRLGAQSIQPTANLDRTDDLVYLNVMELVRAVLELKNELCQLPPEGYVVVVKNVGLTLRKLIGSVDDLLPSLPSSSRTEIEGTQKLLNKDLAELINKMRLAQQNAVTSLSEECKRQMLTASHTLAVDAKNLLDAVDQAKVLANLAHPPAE
# assay.method.text: Assay measuring PYK-2 protein kinase activity (phosphorylation of a biotinylated peptide)
# Assay type: biochemical
# condition.summary: pyk-2 from transformed yeast lysate, 5 μM ATP; compound at 100 μM
Field format: number, assumed %, no unit text.

Answered examples (8):
compound	inhibition at 100 µM [%]
Cc1c(/C=C2\C(=O)Nc3ccc(S(N)(=O)=O)cc32)[nH]c2ccccc12 [IN-002]	46.7
Cc1cccc2c1C(=Cc1cc3ccccc3[nH]1)C(=O)N2 [IN-015]	3.9
O=C1Nc2ccc(/N=C/c3cc4ccccc4[nH]3)cc2/C1=C/c1cc2ccccc2[nH]1 [IN-020]	64.3
Cc1cccc2c1/C(=C/c1[nH]c3ccccc3c1C)C(=O)N2 [IN-019]	-36
CC(=O)c1ccc2c(c1)C(=Cc1[nH]c3ccccc3c1C)C(=O)N2 [IN-006]	27
Cc1c(/C=C2\C(=O)Nc3ccc(Cl)cc32)[nH]c2ccccc12 [IN-017]	-12
CC(=O)c1ccc2c(c1)C(=Cc1cc3ccccc3[nH]1)C(=O)N2 [IN-007]	17.9
O=C1Nc2cc(Cl)ccc2/C1=C/c1cc2ccccc2[nH]1 [IN-011]	7.4

Proceed to the following item.
Incoming: Reported inhibition at 100 µM, compound O=C1Nc2ccccc2/C1=C/c1cc2ccccc2[nH]1 [IN-012] : ____
Outgoing: 5.1
